The reader will find reported protein stability index values listed item by item below.
B1: HSP90AB1 (parent)
chain: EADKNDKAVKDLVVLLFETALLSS

variants of: B1; test: protein stability index of a GFP-peptide fusion (GPS, HEK-293T) (PSI 1-6); higher = more stable; details: c terminus: a fixed tail appended;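 further: lentivirally expressed fusions sorted by FACS into six bins by GFP to DsRed ratio, PSI derived from sequencing read proportions per bin multiplied by bin number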
No unit in the answer, only the number.

Here are 5 variants together with their reported answers.
# macromolecule_sequence, protein stability index
rows = [
    ("EADKNDKAVKDLVVLLIETALLSS [F17I]", 1.84),
    ("EADKNDKAVKDLVVLLFESALLSS [T19S]", 2.15),
    ("EAPKNDKAVKDLVVLLFETALLSS [D3P]", 2.47),
    ("EADKNDKAVKDLIVLLFETALLSS [V13I]", 1.93),
    ("EADKNDKAVKDFVVLLFETALLSS [L12F]", 1.72),
]

Consider the variant EADKNDKAVKDLVVLLGETALLSS [F17G] and give its measured protein stability index.
4.26

Consider the variant EADKNDKAVKDLVVGLFETALLSS [L15G] and give its measured protein stability index.
3.23

Every entry's value here was drawn from the supplement of paper PMC10567573.
